Target: human CD28 (human, UniProt P10747 19-220)
Assay: cell-based or functional assay
Quantity name: MLR assay (EC50) (nM)

Q) Suppose we examine the binder 1h-99-203 (other) VH: EVQLLESGGGLVQPGGSLRLSCAASGFTFYKANMSWARQAPGKGLEWVSWIEDTGTQTFYADSVKGRFTISRDNSKNTLYLQMNSLRAEDTAVYYCAKSPFGPLYGFDYRGQGTLVTVSS ; what MLR assay (EC50) value has been reported?
A) 10

[P] 1h-93-201 (other) VH: EVQLLESGGGLVQPGGSLRLSCAASGFTFSVSEMAWVRQAPGKGLEWVSSIMSNGIRTYYADSVKGRFTISRDNSKNTLYLQMNSLRAEDTAVYYCARRESSSSRTVFDYWGQGTLVTVSS
[Q] 1h-99-218 (other) VH: EVQLLESGGGLVQPGGSLRLSCAASGFTFDKSNMSWARQAPGKGLEWVSWIEDTGTQTFYADSVKGRFTISRDNSKNTLYLQMNSLRAEDTAVYYCAKSPFGPLYGFDYRGQGTLVTVSS
Q) So which one has the bigger MLR assay (EC50) here, P or Q ? Indicate your choice by writing its label.
A) P
